Origin of values: ChEMBL document CHEMBL1144812

# assayExplanation: Cytotoxicity against human HeLa cells after 24 hrs
# Type: cell-based
# conditionsUsed: read-out: CD50
Recorded CC50 at 24 h, one value per entry.
Give a bare numeral; the unit µM is implied.

Example cases with answers are listed next.
COc1ccc(NC(=S)N2N=C(c3ccccc3O)C[C@H]2c2ccc(O)cc2)cc1 : 4
Oc1ccc([C@@H]2CC(c3ccccc3O)=NN2C(=S)Nc2ccccc2)cc1 : 42

Returns the measured CC50 at 24 h for the input molecule. Input: `Oc1ccccc1C1=NN(C(=S)Nc2ccccc2)[C@H](c2ccccc2)C1` 3

Returns the measured CC50 at 24 h for the input molecule. Input: `COc1ccc(NC(=S)N2N=C(c3ccccc3O)C[C@H]2c2ccc(O)c(OC)c2)cc1` 25

Returns the measured CC50 at 24 h for the input molecule. Input: `COc1cc([C@@H]2CC(c3ccccc3O)=NN2C(=S)Nc2ccccc2OC)ccc1O` 11

Returns the measured CC50 at 24 h for the input molecule. Input: `Cc1ccccc1NC(=S)N1N=C(c2ccccc2O)C[C@H]1c1ccc(O)cc1` 21

Returns the measured CC50 at 24 h for the input molecule. Input: `NC(=S)N1N=C(c2ccccc2O)C[C@H]1c1ccc(O)cc1` 398

====

# System: Yersinia pestis
# assayExplanation: Antimicrobial activity against Yersinia pestis KIM6-2082.1+ in presence of iron limiting PMH-D medium
# Assay type: functional, organism-based
Recorded IC50, one value per entry.

Example cases with answers are listed next.
Oc1ccc(C2=NN(C(=S)Nc3ccccc3)[C@H](c3ccc(O)cc3)C2)cc1 : > 75 µM
Oc1ccccc1C1=NN(C(=S)Nc2ccccc2)[C@H](c2ccccc2Cl)C1 : > 5 µM
Oc1ccc([C@@H]2CC(c3ccccc3)=NN2C(=S)Nc2ccccc2)cc1 : > 38 µM
NC(=S)N1N=C(c2ccccc2O)C[C@H]1c1ccc(O)cc1 : > 38 µM
Oc1ccccc1[C@@H]1CC(c2ccccc2)=NN1C(=S)Nc1ccccc1 : > 19 µM

Then there is this molecule:
Lab note: need IC50 with Yersinia pestis for entry `Oc1ccccc1C1=NN(C(=S)Nc2ccccc2)[C@H](c2ccccc2)C1` , please look it up. > 9 µM

====

Recorded IC50, one value per entry.
# testTarget: AMP-binding enzyme family protein (Yersinia pestis, UniProt Q56950)
# Sequence (Q56950 whole entry): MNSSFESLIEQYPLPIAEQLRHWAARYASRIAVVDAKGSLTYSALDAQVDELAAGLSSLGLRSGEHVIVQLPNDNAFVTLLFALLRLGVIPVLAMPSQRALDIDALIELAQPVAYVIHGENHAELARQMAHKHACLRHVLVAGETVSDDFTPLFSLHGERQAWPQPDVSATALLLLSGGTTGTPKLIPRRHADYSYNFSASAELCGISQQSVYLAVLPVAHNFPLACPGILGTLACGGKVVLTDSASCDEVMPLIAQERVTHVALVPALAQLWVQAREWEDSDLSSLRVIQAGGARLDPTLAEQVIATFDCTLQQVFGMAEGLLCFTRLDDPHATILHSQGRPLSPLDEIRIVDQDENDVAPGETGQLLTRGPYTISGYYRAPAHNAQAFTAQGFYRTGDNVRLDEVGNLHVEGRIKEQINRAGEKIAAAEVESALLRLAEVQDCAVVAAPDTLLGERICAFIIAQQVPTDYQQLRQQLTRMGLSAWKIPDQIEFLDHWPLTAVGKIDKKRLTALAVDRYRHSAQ
Give a bare numeral; the unit nM is implied.

Returns the measured IC50 for the input compound. Input: `Cc1ccc(NC(=S)N2N=C(c3ccccc3O)C[C@H]2c2ccccc2O)cc1` 500

Returns the measured IC50 for the input compound. Input: `COc1ccc(NC(=S)N2N=C(c3ccc(O)cc3O)C[C@H]2c2ccc(O)c(OC)c2)cc1` 1000

Returns the measured IC50 for the input compound. Input: `COc1cc([C@@H]2CC(c3ccccc3O)=NN2C(=S)Nc2ccccc2OC)ccc1O` 800

Returns the measured IC50 for the input compound. Input: `COc1cc([C@@H]2CC(c3ccccc3O)=NN2C(=S)Nc2ccccc2)ccc1O` 200

====

# assayExplanation: Cytotoxicity against human HeLa cells after 24 hrs
# Type: cell-based
# conditionsUsed: read-out: CD50
Recorded CC50 at 24 h, one value per entry.
Give a bare numeral; the unit µM is implied.

Oc1ccc(C2=NN(C(=S)Nc3ccccc3)[C@H](c3ccc(O)cc3)C2)cc1 : 248
Cc1ccc(NC(=S)N2N=C(c3ccccc3O)C[C@H]2c2ccccc2O)cc1 : 11

Returns the measured CC50 at 24 h for the input molecule. Input: `COc1cc([C@@H]2CC(c3ccccc3O)=NN2C(=S)Nc2ccc(C)cc2)ccc1O` 16

Returns the measured CC50 at 24 h for the input molecule. Input: `Oc1ccccc1C1=NN(C(=S)Nc2ccccc2)[C@H](c2ccccc2O)C1` 3

Returns the measured CC50 at 24 h for the input molecule. Input: `Oc1ccccc1C1=NN(C(=S)Nc2ccccc2)[C@H](c2ccco2)C1` 3
